- system name: T1, 4H384-AA
- T1 chain: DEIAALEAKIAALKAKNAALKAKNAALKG
- assay procedure: two-hybrid library CCmax;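 further: natural log of median RNA to DNA barcode read ratio; higher means stronger binding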
- condition description: mean of both orientations
Tick Met if interaction score is -1 or greater. Tick Not met if interaction score is less than -1.

State whether the measured interaction score reaches -1, counting equality as reaching it, for DENAALEAENAALEAKIAALKAEIAALEG [4H1193-AA]
Not met

State whether the measured interaction score reaches -1, counting equality as reaching it, for DKIAALKAENAALEAENAALEAEIAALEG [4H2705-AA]
Met

State whether the measured interaction score reaches -1, counting equality as reaching it, for DEIAALEAKIAALKAENAALEAENAALKG [4H340-AA]
Met

State whether the measured interaction score reaches -1, counting equality as reaching it, for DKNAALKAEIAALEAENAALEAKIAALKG [4H3606-AA]
Met

State whether the measured interaction score reaches -1, counting equality as reaching it, for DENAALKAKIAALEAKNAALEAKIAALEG [4H1845-AA]
Not met

State whether the measured interaction score reaches -1, counting equality as reaching it, for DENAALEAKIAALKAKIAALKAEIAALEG [4H1385-AA]
Met

State whether the measured interaction score reaches -1, counting equality as reaching it, for DEIAALEAEIAALEAENAALKAKNAALKG [4H32-AA]
Met

State whether the measured interaction score reaches -1, counting equality as reaching it, for DKIAALKAEIAALEAKNAALKAKIAALKG [4H2622-AA]
Not met

State whether the measured interaction score reaches -1, counting equality as reaching it, for DKNAALKAEIAALEAKIAALKAKNAALEG [4H3631-AA]
Not met

State whether the measured interaction score reaches -1, counting equality as reaching it, for DENAALKAEIAALKAENAALKAKIAALEG [4H1629-AA]
Not met

State whether the measured interaction score reaches -1, counting equality as reaching it, for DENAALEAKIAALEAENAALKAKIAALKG [4H1310-AA]
Not met

State whether the measured interaction score reaches -1, counting equality as reaching it, for DENAALKAEIAALEAKNAALKAEIAALKG [4H1594-AA]
Not met

State whether the measured interaction score reaches -1, counting equality as reaching it, for DENAALEAKNAALKAKIAALKAEIAALEG [4H1513-AA]
Not met

State whether the measured interaction score reaches -1, counting equality as reaching it, for DKIAALKAEIAALEAKNAALEAENAALEG [4H2611-AA]
Met

State whether the measured interaction score reaches -1, counting equality as reaching it, for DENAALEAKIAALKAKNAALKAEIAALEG [4H1401-AA]
Not met

State whether the measured interaction score reaches -1, counting equality as reaching it, for DKNAALEAKIAALEAKNAALEAEIAALKG [4H3378-AA]
Not met

State whether the measured interaction score reaches -1, counting equality as reaching it, for DEIAALEAEIAALKAKNAALKAENAALEG [4H123-AA]
Met

State whether the measured interaction score reaches -1, counting equality as reaching it, for DKNAALKAEIAALEAEIAALEAENAALEG [4H3587-AA]
Met

State whether the measured interaction score reaches -1, counting equality as reaching it, for DKIAALKAKNAALKAKIAALKAEIAALEG [4H3049-AA]
Not met

State whether the measured interaction score reaches -1, counting equality as reaching it, for DENAALEAKIAALKAEIAALEAKIAALKG [4H1350-AA]
Met

State whether the measured interaction score reaches -1, counting equality as reaching it, for DKIAALKAKIAALKAENAALKAENAALEG [4H2907-AA]
Met

State whether the measured interaction score reaches -1, counting equality as reaching it, for DKNAALEAEIAALKAENAALKAEIAALKG [4H3162-AA]
Not met

State whether the measured interaction score reaches -1, counting equality as reaching it, for DKNAALKAEIAALEAEIAALEAKIAALKG [4H3590-AA]
Met

State whether the measured interaction score reaches -1, counting equality as reaching it, for DKIAALKAEIAALKAENAALEAKNAALKG [4H2648-AA]
Met

State whether the measured interaction score reaches -1, counting equality as reaching it, for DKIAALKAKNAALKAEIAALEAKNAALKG [4H3016-AA]
Not met

State whether the measured interaction score reaches -1, counting equality as reaching it, for DKIAALKAKIAALKAEIAALEAKNAALKG [4H2888-AA]
Met

State whether the measured interaction score reaches -1, counting equality as reaching it, for DKIAALEAKNAALKAKNAALKAEIAALEG [4H2553-AA]
Not met
